system: DMS 114 tumor spheroids, viability % test/control; assay: Anticancer human tumor DMS 114 cell line growth inhibition; settings: second compound 94.9 pM; first compound 0.3 µM; stronger effect = lower value; spheroids with HUVEC and MSC;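 note: luminescence used as a proxy for viable cells; spheroids exposed to compounds for 7 days before read-out; 100% = DMSO vehicle control viability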
ENDPOINT_NAME: viability, T/C (%)
Numeric only. Scale: %

// solved cases for viability, T/C follow
COMPOUND: CNCc1ccc(-c2cc(-c3nc(-c4ccc(S(=O)(=O)C(C)C)cc4)cnc3N)on2)cc1 + COc1cc2c(cc1O)CCNC21CSC2c3c(OC(C)=O)c(C)c4c(c3C(COC1=O)N1C(O)C3Cc5cc(C)c(OC)c(O)c5C(C21)N3C)OCO4
viability, T/C, %: 12.2
--
COMPOUND: Cn1ncnc1[C@H]1c2n[nH]c(=O)c3cc(F)cc(c23)N[C@@H]1c1ccc(F)cc1 + COc1cc2c(cc1O)CCNC21CSC2c3c(OC(C)=O)c(C)c4c(c3C(COC1=O)N1C(O)C3Cc5cc(C)c(OC)c(O)c5C(C21)N3C)OCO4
viability, T/C, %: 33.3
--
COMPOUND: O=C(c1cc(Cc2n[nH]c(=O)c3ccccc23)ccc1F)N1CCN(C(=O)C2CC2)CC1 + COc1cc2c(cc1O)CCNC21CSC2c3c(OC(C)=O)c(C)c4c(c3C(COC1=O)N1C(O)C3Cc5cc(C)c(OC)c(O)c5C(C21)N3C)OCO4
viability, T/C, %: 94.6

Challenge: Recorded viability, T/C for Cc1sc2c(c1C)C(c1ccc(Cl)cc1)=NC(CC(=O)Nc1ccc(O)cc1)c1nnc(C)n1-2 (centres undefined) + COc1cc2c(cc1O)CCNC21CSC2c3c(OC(C)=O)c(C)c4c(c3C(COC1=O)N1C(O)C3Cc5cc(C)c(OC)c(O)c5C(C21)N3C)OCO4 , please?
Response given: 12.1
